- EXPERIMENT: Pharmacokinetic study, single oral dose in rats
- Format: in vivo
- MEASUREMENT_CONTEXT: Sprague-Dawley, rat; mean; male Sprague-Dawly rats, single oral dose 10 mg/kg in 0.5% methylcellulose suspension, overnight fasted; plasma, HPLC-UV
OBSERVED_PROPERTY: AUC(0-inf) (ng·h/mL)
Entry rule: numbers only, all in ng·h/mL.

*Q* I'd like to know its AUC(0-inf). The molecule in question is CC(C)(CO)NC(=O)c1nn(-c2ccc(Cl)cc2)c2c1[C@@H]1CC[C@H]2C1 (single isomer, unassigned)
*A* 12000

====

- EXPERIMENT: Pharmacokinetic study, single oral dose in rats
- Assay type: in vivo
- MEASUREMENT_CONTEXT: Sprague-Dawley, rat; mean; male Sprague-Dawly rats, single oral dose 10 mg/kg in 0.5% methylcellulose suspension, overnight fasted; plasma, HPLC-UV
OBSERVED_PROPERTY: half-life (h)
Provide only the numeric value, understood in h.

*Q* Fill blank: measured half-life of the molecule CC(C)(CO)NC(=O)c1nn(-c2ccc(Cl)cc2)c2c1[C@@H]1CC[C@H]2C1 (single isomer, unassigned) is ____.
*A* 4.77

====

- EXPERIMENT: Pharmacokinetic study, single oral dose in rats
- Format: in vivo
- MEASUREMENT_CONTEXT: Sprague-Dawley, rat; mean; male Sprague-Dawly rats, single oral dose 10 mg/kg in 0.5% methylcellulose suspension, overnight fasted; plasma, HPLC-UV
OBSERVED_PROPERTY: Cmax
Express your answer as a number followed by its unit.

*Q* // Cmax lookup, key: CC(C)(CO)NC(=O)c1nn(-c2ccc(Cl)cc2)c2c1[C@@H]1CC[C@H]2C1 (single isomer, unassigned)
*A* 1950 ng/mL

====

- EXPERIMENT: Pharmacokinetic study, single oral dose in rats
- Type: in vivo
- MEASUREMENT_CONTEXT: Sprague-Dawley, rat; mean; male Sprague-Dawly rats, single oral dose 10 mg/kg in 0.5% methylcellulose suspension, overnight fasted; plasma, HPLC-UV
- Protocol: Male Sprague-Dawly rats were administered by oral gavage a single oral dose of 10 mg/kg b.wt. test compound in 0.5% methylcellulose suspension in overnight fasted (12 hrs before dose) condition. Fasting was continued till 4 hr post dose. […] These samples were analyzed for the levels of the test compound by HPLC-UV and the pharmacokinetic parameters were calculated using these concentrations by using WinNonlin software (Pharsight Inc., USA, Version 5.1).
OBSERVED_PROPERTY: AUC(0-t) (ng·h/mL)
Express the result in ng·h/mL but write the number alone.

*Q* Consider the compound shown here: CC(C)(CO)NC(=O)c1nn(-c2ccc(Cl)cc2)c2c1[C@@H]1CC[C@H]2C1 (single isomer, unassigned) [Compound 98] What is its recorded AUC(0-t)?
*A* 11700
